Attribution: patent US9169241B2

Tested on: SF126
METHOD DESCRIPTION: Cell vitality assay (ATP assay, CellTiter-Glo)
Format: cell-based
CONDITIONS USED: Homo sapiens, SF-126; SF126, 72 h; Table IIa; read-out: IC50 ATP-Assay after 72 h SF126

COMPOUND | IC50
COc1cc2c(Oc3ccc(NS(=O)(=O)c4ccc(F)cc4F)cc3F)ccnc2cc1OCCCN1CCCC(C)C1 (stereo not shown) [Example 47] | ≤ 12.5 µM
COc1cc2c(Oc3ccc(NS(=O)(=O)c4cccc(Oc5ccccc5)c4)cc3F)ccnc2cc1OCCCN1CCCCC1 [Example 10] | ≤ 12.5 µM
COC(=O)c1sccc1S(=O)(=O)Nc1ccc(Oc2ccnc3cc(OCCCN(C)C)c(OC)cc23)c(F)c1 [Example 184] | ≤ 12.5 µM
COc1cc2c(Oc3ccc(NS(=O)(=O)c4c(F)cccc4F)cc3F)ccnc2cc1OCCCN1CCCCC1 [Example 11] | 12.5 to 50 µM

---

Tested on: Hs578T
METHOD DESCRIPTION: Cell vitality assay (ATP assay, CellTiter-Glo)
Type: cell-based
CONDITIONS USED: Homo sapiens, Hs-578T; Hs578T, 72 h; Table IIa; read-out: IC50 ATP-Assay after 72 h Hs578T
pIC50: −log10 of the molar value.
Reported values of pIC50 for individual entries

MOLECULE | pIC50
COc1cc2c(Oc3ccc(NS(=O)(=O)c4ccccc4C(F)(F)F)cc3F)ccnc2cc1OCCCNC1CCOCC1 [Example 95] | 4.30 to 4.90
COc1cc2c(Oc3ccc(NS(=O)(=O)c4cc(F)ccc4F)cc3F)ccnc2cc1OCCCN1CCCCC1 [Example 1] | 4.30 to 4.90
COc1cc2c(Oc3ccc(NS(=O)(=O)c4ccc(Cl)s4)cc3F)ccnc2cc1OCCCN1CCCC(C)C1 (centres unmarked) [Example 63] | ≥ 4.90
COc1cc2c(Oc3ccc(NS(=O)(=O)c4cccc(C)c4)cc3F)ccnc2cc1OCCCN1CCCC(C)C1 (centres unmarked) [Example 70] | 4.30 to 4.90
COc1cc2c(Oc3ccc(NS(=O)(=O)c4ccccc4C(F)(F)F)cc3Cl)ccnc2cc1OCCCN1CCN(C)CC1 [Example 87] | 4.30 to 4.90

---

Below, each entry is listed with its recorded pIC50.
System: Hs578T
METHOD DESCRIPTION: Matrigel outgrowth assay/branching assay
Format: cell-based
CONDITIONS USED: Homo sapiens, Hs-578T; HS578T cell line; Table Ib; read-out: Total branching inhibition in Matrigel HS578T
pIC50: −log10 of the molar value.

COMPOUND SMILES | pIC50
COc1cc2c(Oc3cc(NS(=O)(=O)c4ccccc4C(F)(F)F)ccc3F)ccnc2cc1OCCCN1CCC(C)CC1 | 4.60 to 5.00
COc1cc2c(Oc3ccc(NS(=O)(=O)c4ccccc4C(F)(F)F)cc3F)ccnc2cc1OCCCN1CCCCC1 | ≥ 5.00
COc1cc2c(Oc3c(Cl)cc(NS(=O)(=O)c4c(F)cccc4F)cc3Cl)ccnc2cc1OCCCN1CCN(C)CC1 | 4.60 to 5.00
COc1cc2c(Oc3ccc(NS(=O)(=O)c4c(F)cccc4F)cc3OC)ccnc2cc1OCCCN1CCC(C)CC1 | 4.60 to 5.00

---

System: SF126
METHOD DESCRIPTION: Cell vitality assay (ATP assay, CellTiter-Glo)
Type: cell-based
CONDITIONS USED: Homo sapiens, SF-126; SF126, 72 h; Table IIa; read-out: IC50 ATP-Assay after 72 h SF126
READOUT NAME: IC50

MOLECULE | RESULT
COc1cc2c(Oc3ccc(NS(=O)(=O)c4cc(F)ccc4F)cc3F)ccnc2cc1OCCCN(C)C [Example 177] | ≤ 12.5 µM
COc1cc2c(Oc3ccc(NS(=O)(=O)c4c(Cl)cccc4Cl)cc3Cl)ccnc2cc1OCCCN1CCN(C)CC1 [Example 119] | ≤ 12.5 µM
COc1cc2c(Oc3ccc(NS(=O)(=O)c4ccccc4C(F)(F)F)cc3F)ccnc2cc1OCCCNC1CCOCC1 [Example 95] | ≤ 12.5 µM
COC(=O)c1sccc1S(=O)(=O)Nc1ccc(Oc2ccnc3cc(OCCCN4CCCC(C)C4)c(OC)cc23)c(F)c1 (centres unmarked) [Example 66] | ≤ 12.5 µM
COc1cc2c(Oc3ccc(NS(=O)(=O)c4c(Cl)cccc4Cl)cc3F)ccnc2cc1OCCCN1CCCC(C)C1 (centres unmarked) [Example 51] | ≤ 12.5 µM
COc1cc2c(Oc3ccc(NS(=O)(=O)c4ccccc4C(F)(F)F)cc3F)ccnc2cc1OCCCN1CCCCC1C (centres unmarked) [Example 99] | ≤ 12.5 µM
COc1cc2c(Oc3ccc(NS(=O)(=O)c4ccccc4[N+](=O)[O-])cc3F)ccnc2cc1OCCCN1CCCC(C)C1 (centres unmarked) [Example 40] | ≤ 12.5 µM
COc1cc2c(Oc3ccc(NS(=O)(=O)c4c(Cl)cccc4Cl)cc3F)ccnc2cc1OCCCN1CCCCC1 [Example 6] | ≤ 12.5 µM
COc1cc2c(Oc3ccc(NS(=O)(=O)c4ccccc4Cl)cc3F)ccnc2cc1OCCCN1CCCC(C)C1 (centres unmarked) [Example 38] | ≤ 12.5 µM
COc1cc2c(Oc3ccc(NS(=O)(=O)c4ccccc4C(F)(F)F)cc3F)ccnc2cc1OCCCN(C)C [Example 100] | ≤ 12.5 µM
COc1cc2c(Oc3ccc(NS(=O)(=O)c4cccc(Oc5ccccc5)c4)cc3F)ccnc2cc1OCCCN1CCCC(C)C1 (centres unmarked) [Example 59] | 12.5 to 50 µM
COc1cc2c(Oc3ccc(NS(=O)(=O)c4cccc(Oc5ccccc5)c4)cc3F)ccnc2cc1OCCCN1CCN(C)CC1 [Example 14] | ≤ 12.5 µM
COc1cc2c(Oc3ccc(NS(=O)(=O)c4ccccc4[N+](=O)[O-])cc3F)ccnc2cc1OCCCN1CCCCC1 [Example 7] | 12.5 to 50 µM
COc1cc2c(Oc3ccc(NS(=O)(=O)c4cccc(C#N)c4)cc3F)ccnc2cc1OCCCN1CCCC(C)C1 (centres unmarked) [Example 41] | 12.5 to 50 µM
